Test system: Ba/F3 KIF5B-RET cells
measurement-description: Cell growth inhibitory activity against KIF5B-RET-expressing Ba/F3 cells (CellTiter-Glo)
Type: cell-based
measurement-parameters: Mus musculus, BaF3, 48 h; read-out: cell growth inhibition IC50 value, Ba/F3 KIF5B-RET cells
pIC50: −log10 of the molar value.
property-measured: pIC50

>  <compound-smiles>
CCc1cc2c(cc1N1CCC(N3CCOCC3)CC1)C(C)(C)c1[nH]c3cc(C#N)ccc3c1C2=O

>  <target>
Ba/F3 KIF5B-RET cells

>  <assay-value>
7.07

$$$$

* * *

System: LC-2/ad cells (CCDC6-RET fusion gene)
measurement-description: Cell growth inhibitory activity against non-small cell lung cancer cell line LC-2/ad (CellTiter-Glo)
Assay type: cell-based
measurement-parameters: Homo sapiens, 120 h, read-out: cell growth inhibition IC50 value, LC-2/ad cells
pIC50: −log10 of the molar value.
property-measured: pIC50

>  <compound-smiles>
CCc1cc2c(cc1N1CCC(N3CCOCC3)CC1)C(C)(C)c1[nH]c3cc(C#N)ccc3c1C2=O

>  <assay-value>
6.72

$$$$

Data origin: patent US11633402B2
